Cited source for all entries: patent US20100145007A1

- Tested System: T1, human LGR7 (human, UniProt Q9HBX9 1-757)
- T1 construct: whole, on cells; also called relaxin receptor
- T1 sequence (looked up): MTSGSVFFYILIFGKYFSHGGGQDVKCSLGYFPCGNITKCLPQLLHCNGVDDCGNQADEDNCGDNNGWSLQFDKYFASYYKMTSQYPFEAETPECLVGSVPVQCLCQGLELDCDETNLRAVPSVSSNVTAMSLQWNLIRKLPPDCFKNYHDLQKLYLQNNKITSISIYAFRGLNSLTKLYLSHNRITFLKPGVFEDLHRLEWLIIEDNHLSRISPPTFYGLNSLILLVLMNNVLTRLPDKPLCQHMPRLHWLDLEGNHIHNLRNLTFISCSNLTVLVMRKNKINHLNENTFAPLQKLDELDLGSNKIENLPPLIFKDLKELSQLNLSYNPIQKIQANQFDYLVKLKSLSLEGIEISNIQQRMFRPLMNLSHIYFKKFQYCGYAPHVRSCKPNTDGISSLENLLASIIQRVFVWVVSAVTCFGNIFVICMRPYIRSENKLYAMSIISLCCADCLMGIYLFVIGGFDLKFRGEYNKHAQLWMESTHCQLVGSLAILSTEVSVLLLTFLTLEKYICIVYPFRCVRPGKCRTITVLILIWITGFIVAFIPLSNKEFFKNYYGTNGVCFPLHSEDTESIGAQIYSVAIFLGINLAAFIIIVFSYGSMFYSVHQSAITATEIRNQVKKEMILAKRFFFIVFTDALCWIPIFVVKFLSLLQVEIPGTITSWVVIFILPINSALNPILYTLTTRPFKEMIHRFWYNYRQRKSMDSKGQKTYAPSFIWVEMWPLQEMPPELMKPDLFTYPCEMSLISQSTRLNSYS
- Assay Comment: radioligand competition, 50 pM 125I-relaxin-2 tracer, COS-7 cells transiently expressing human LGR7
- From the text: […]
pIC50: −log10 of the molar value.
Endpoint Name: pIC50

binder="R3(BΔ26-27) (peptide) chain 1: RAAPYGVRLCGREFIRAVIFTCGGS chain 2: DVLAGLSSSCCKWGCSKSEISSLC" endpoint_name=pIC50 value_observed=8.20
binder="R3(BΔ25-27) (peptide) chain 1: RAAPYGVRLCGREFIRAVIFTCGG chain 2: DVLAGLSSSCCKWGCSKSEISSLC" endpoint_name=pIC50 value_observed=8.10
binder="R3(BΔ24-27) (peptide) chain 1: RAAPYGVRLCGREFIRAVIFTCG chain 2: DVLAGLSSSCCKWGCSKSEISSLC" endpoint_name=pIC50 value_observed=8.05
